Listed here are compounds together with their documented solubility.
test: Solubility in simulated intestinal fluids (FaSSIF/FeSSIF); conditions: fed state simulated intestinal fluid (FeSSIF), 25 °C, fessif, thermodynamic from solid
Numeric only. Scale: µg/mL

STRUCTURE_AS_SMILES: CC(C)(C#Cc1ccc(-c2ccc(Cl)c3c(N(C(=O)OCOP(=O)(O)O)S(C)(=O)=O)nn(CC(F)(F)F)c23)c([C@H](Cc2cc(F)cc(F)c2)NC(=O)Cn2nc(C(F)(F)F)c3c2C(F)(F)[C@@H]2C[C@H]32)n1)S(C)(=O)=O
ENDPOINT_RESULT: 3

[in] Could you tell me which solubility is on file for CC(C)(C#Cc1ccc(-c2ccc(Cl)c3c(N(C(=O)N(CCCC(=O)O)CCNC(=O)OCOP(=O)(O)O)S(C)(=O)=O)nn(CC(F)(F)F)c23)c([C@H](Cc2cc(F)cc(F)c2)NC(=O)Cn2nc(C(F)(F)F)c3c2C(F)(F)[C@@H]2C[C@H]32)n1)S(C)(=O)=O ?
[out] 1800

[in] Cool, now CC(C)(C#Cc1ccc(-c2ccc(Cl)c3c(N(C(=O)OCCCP(=O)(O)O)S(C)(=O)=O)nn(CC(F)(F)F)c23)c([C@H](Cc2cc(F)cc(F)c2)NC(=O)Cn2nc(C(F)(F)F)c3c2C(F)(F)[C@@H]2C[C@H]32)n1)S(C)(=O)=O
[out] 1250
